Tested on: T-47D breast
Assay: NCI tumour cell line growth inhibition, 48 h; in the data active = GI50 below about 0.43 µM; inactive = the rest
Give one outcome, nothing more. List: TRUE = active, FALSE = inactive

Record excerpt, results attached:
COc1cnc2c(c1)C(=O)c1c-2n(CCCN2CCN(C)CC2)c(=O)c2cc(Cl)ccc12 = FALSE
CCN(CC)CCOc1cc2c(C(=O)OC)c(C)oc2cc1C(C)=O = FALSE
O=C(Cn1ccnc1[N+](=O)[O-])NCC(F)(F)C(F)(F)F = FALSE

Exam item: Which result was noted for this compound in the test: Cc1ccc(S(=O)(=O)n2cc(C(=O)C(=O)Nc3ccncc3)c3ccccc32)cc1
Marked response: FALSE

Exam item: Which result was noted for this compound in the test: C/C(=C\c1ccn(-c2ccc(N)cc2)n1)[C@@H]1C[C@@H]2O[C@]2(C)CCC[C@H](C)[C@H](O)[C@@H](C)C(=O)C(C)(C)[C@@H](O)CC(=O)O1
Marked response: TRUE

Exam item: Which result was noted for this compound in the test: COc1ccc(Nc2ccnc(NCCCNc3ccnc4cc(Cl)ccc34)n2)cc1
Marked response: FALSE
